Biological target: human MC3R (human, UniProt P41968 1-323)
Sequence (P41968 whole entry): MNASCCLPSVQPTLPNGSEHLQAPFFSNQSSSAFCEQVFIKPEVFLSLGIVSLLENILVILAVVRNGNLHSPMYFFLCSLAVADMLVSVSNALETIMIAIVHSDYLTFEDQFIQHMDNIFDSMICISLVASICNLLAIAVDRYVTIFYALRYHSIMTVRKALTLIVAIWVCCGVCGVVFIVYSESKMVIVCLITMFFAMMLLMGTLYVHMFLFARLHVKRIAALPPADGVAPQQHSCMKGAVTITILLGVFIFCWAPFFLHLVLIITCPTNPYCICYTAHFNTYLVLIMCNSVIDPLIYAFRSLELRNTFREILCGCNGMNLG
Test: cell-based or functional assay
Starred links: 1 amine or outer side, 2 acyl side, 3 side chain; linkers in the order of their positions; H or OH if unused. Positions of bridges follow the written chain, without caps; N, C: chain ends. Non-standard residues stand in square brackets, D forms with d. dTyr(O-Me) = O-methyl-D-tyrosine, COc1ccc(C[C@@H](N[*:1])C(=O)[*:2])cc1; dPhe(4-Br) = N[C@H](Cc1ccc(Br)cc1)C(=O)O; Cit = NC(=O)NCCC[C@H](N)C(=O)O; Nle = CCCC[C@H](N)C(=O)O; Aib = CC(C)(N)C(=O)O
Observed Property: cAMP EC50 (nM)
Write down the numeric answer in nM and omit the unit.

Sample answers from the record:
INSERT INTO assay_data (binder, observed_property, unit_of_measurement, assay_value) VALUES
  ('Ac-RC[dA]R[dF][dR][dW]C-NH2 (disulfide 2-8; SMILES CC(=O)N[C@@H](CCCNC(=N)N)C(=O)N[C@H]1CSSC[C@@H](C(N)=O)NC(=O)[C@@H](Cc2c[nH]c3ccccc23)NC(=O)[C@@H](CCCNC(=N)N)NC(=O)[C@@H](Cc2ccccc2)NC(=O)[C@H](CCCNC(=N)N)NC(=O)[C@@H](C)NC1=O) [CTX-1283]', 'cAMP EC50', 'nM', 719),
  ('Ac-RC[Aib]R[dF][Cit][dW]C-NH2 (disulfide 2-8) [CTX-1271]', 'cAMP EC50', 'nM', 117),
  ('Ac-RC[dA]P[dPhe(4-Br)]R[dW]C-NH2 (disulfide 2-8; SMILES CC(=O)N[C@@H](CCCNC(=N)N)C(=O)N[C@H]1CSSC[C@@H](C(N)=O)NC(=O)[C@@H](Cc2c[nH]c3ccccc23)NC(=O)[C@H](CCCNC(=N)N)NC(=O)[C@@H](Cc2ccc(Br)cc2)NC(=O)[C@@H]2CCCN2C(=O)[C@@H](C)NC1=O) [CTX-1249]', 'cAMP EC50', 'nM', 6.1),
  ('Ac-R[Nle]CR[dPhe(4-Br)]R[dW]C-NH2 (disulfide 3-8; SMILES CCCC[C@H](NC(=O)[C@H](CCCNC(=N)N)NC(C)=O)C(=O)N[C@H]1CSSC[C@@H](C(N)=O)NC(=O)[C@@H](Cc2c[nH]c3ccccc23)NC(=O)[C@H](CCCNC(=N)N)NC(=O)[C@@H](Cc2ccc(Br)cc2)NC(=O)[C@H](CCCNC(=N)N)NC1=O) [CTX-1232]', 'cAMP EC50', 'nM', 6),
  ('Ac-RC[dA]R[dTyr(O-Me)]R[dW]C-NH2 (disulfide 2-8; SMILES COc1ccc(C[C@H]2NC(=O)[C@H](CCCNC(=N)N)NC(=O)[C@@H](C)NC(=O)[C@@H](NC(=O)[C@H](CCCNC(=N)N)NC(C)=O)CSSC[C@@H](C(N)=O)NC(=O)[C@@H](Cc3c[nH]c4ccccc34)NC(=O)[C@H](CCCNC(=N)N)NC2=O)cc1) [CTX-1238]', 'cAMP EC50', 'nM', 3),
  ('Ac-RC[dA]R[dPhe(4-Br)]R[dA]C-NH2 (disulfide 2-8; SMILES CC(=O)N[C@@H](CCCNC(=N)N)C(=O)N[C@H]1CSSC[C@@H](C(N)=O)NC(=O)[C@@H](C)NC(=O)[C@H](CCCNC(=N)N)NC(=O)[C@@H](Cc2ccc(Br)cc2)NC(=O)[C@H](CCCNC(=N)N)NC(=O)[C@@H](C)NC1=O) [CTX-1260]', 'cAMP EC50', 'nM', 239);

# input for lookup
Just so you know, measured cAMP EC50 for Ac-R[Nle]CR[dPhe(4-Br)]R[dW]C-NH2 (disulfide 3-8; SMILES CCCC[C@H](NC(=O)[C@H](CCCNC(=N)N)NC(C)=O)C(=O)N[C@H]1CSSC[C@@H](C(N)=O)NC(=O)[C@@H](Cc2c[nH]c3ccccc23)NC(=O)[C@H](CCCNC(=N)N)NC(=O)[C@@H](Cc2ccc(Br)cc2)NC(=O)[C@H](CCCNC(=N)N)NC1=O) [CTX-1613] came out at 4
